Assay: Anodic potential of the compound at pH 6.02 by differential pulse voltammetry
Type: physicochemical
Listed next: entries and their corresponding Activity.
Observation Type: Activity (V)

INSERT INTO results (structure, observation_type, test_result) VALUES
  ('CC[C@H](C)[C@H](N)C(=O)N[C@H](C(=O)N[C@H](C(=O)N[C@@H](Cc1ccc(O)cc1)C(=O)N1CCC[C@H]1C(=O)N[C@@H](Cc1c[nH]c2ccccc12)C(=O)N[C@H](C(=O)N[C@@H](CCC(N)=O)C(N)=O)[C@@H](C)O)C(C)C)C(C)C', 'Activity', 0.16),
  ('CC(C)[C@H](N)C(=O)N[C@H](C(=O)N[C@@H](Cc1ccc(O)cc1)C(=O)N1CCC[C@H]1C(=O)N[C@@H](Cc1c[nH]c2ccccc12)C(=O)N[C@H](C(=O)N[C@@H](CCCN)C(N)=O)[C@@H](C)O)C(C)C', 'Activity', 0.175),
  ('CC(C)[C@H](N)C(=O)N[C@H](C(=O)N[C@@H](Cc1ccc(O)cc1)C(=O)N1CCC[C@H]1C(=O)N[C@@H](Cc1c[nH]c2ccccc12)C(=O)N[C@H](C(=O)N[C@@H](CN)C(N)=O)[C@@H](C)O)C(C)C', 'Activity', 0.207);
